Molecular target: Genome polyprotein (dengue virus type 2)
Assay type: functional, Thailand/16681/1984
pIC50: −log10 of the molar value.
quantity: pIC50

### Prompt Entry NCc1cccc(NC(=O)[C@H]2CCCN(C(=O)CC3CC3)C2)c1 : reported pIC50 = ?
### Response < 4.00

### Prompt Quick one: pIC50 of C=CC[C@H](Nc1cc(Cl)cc(NC(=O)OCc2ccccc2)c1)c1cccc(CN)c1 ?
### Response 4.43

### Prompt // query pIC50 value for entry O=C(N[C@H](C(=O)NCc1cccc(CO)c1)c1ccc(OCc2ccccc2)cc1)OCc1ccccc1
### Response < 4.00

### Prompt What does the data say about its pIC50? Entry: CCc1ccc(NS(=O)(=O)c2ccc(Oc3ccccc3Cl)cc2)c(C(=O)NC)c1
### Response < 4.00

### Prompt I have this molecule here, O=C(NCC(F)F)[C@H](Nc1ccc2c(c1)CNC2)c1cc(Cl)cc(Cl)c1OCCN1CCOCC1 , and I need its recorded pIC50.
### Response < 4.00

====

Catalogue of IC50 values
Biological target: Genome polyprotein (dengue virus type 2)
Format: functional, Thailand/16681/1984

O=S(=O)(Nc1cccc(-c2nnn[nH]2)c1)c1cc(F)cc(Cl)c1
> 100 µM
NCc1ccc2c(c1)[C@H](N1CCCC1=O)C[C@H](c1cc(Cl)cc(NC(=O)OCc3ccccc3)c1)N2
75.5 µM
CNc1c(-c2cc(Cl)cc(C3CC3)c2)nc2cccc(C(=O)O)n12
> 100 µM

### Prompt IC50 lookup needed for NCc1cccc(NC(=O)[C@@H](NC(=O)OCc2ccccc2)c2cccc(-c3ccc(CN)cc3F)c2)c1 , thanks.
### Response > 100 µM

### Prompt Which IC50 value belongs to CC(C)[C@H](CC(=O)O)NC(=O)c1cc(Cl)cc(NC(=O)OCc2ccccc2)c1 ?
### Response > 100 µM

### Prompt Fill blank: measured IC50 of the molecule O=C(Nc1cc(Cl)cc(C(=O)Nc2cccc(Cc3nn[nH]n3)c2)c1)OCc1ccccc1 is ____.
### Response > 100 µM

### Prompt Tell me the measured IC50 of O=C1CCCc2cc(C(=O)Nc3ccc4c(c3)CNC4)ccc2N1 , please.
### Response > 100 µM

### Prompt Which IC50 reading was recorded for the molecule CSc1cc(F)c(C(=O)Nc2cccc(CN)c2)cc1NC(=O)OCc1ccccc1 ?
### Response > 100 µM

### Prompt Request the reported IC50 associated with NCCc1cc(C(=O)Nc2cc(-c3cccnc3)ccn2)no1
### Response > 100 µM

### Prompt Record request: IC50 value, item CCc1cc(C(=O)Nc2cccc(-c3nnn[nH]3)c2)ccc1Cl
### Response 67.2 µM

====

Biological target: Genome polyprotein (dengue virus type 2, UniProt P29990)
Sequence (P29990 1346-1475 limits assumed): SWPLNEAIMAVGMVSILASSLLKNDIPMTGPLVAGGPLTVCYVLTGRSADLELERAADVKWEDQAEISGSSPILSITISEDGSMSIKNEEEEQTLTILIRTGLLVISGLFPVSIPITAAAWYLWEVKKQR
Sequence (P29990 1476-2093 limits assumed): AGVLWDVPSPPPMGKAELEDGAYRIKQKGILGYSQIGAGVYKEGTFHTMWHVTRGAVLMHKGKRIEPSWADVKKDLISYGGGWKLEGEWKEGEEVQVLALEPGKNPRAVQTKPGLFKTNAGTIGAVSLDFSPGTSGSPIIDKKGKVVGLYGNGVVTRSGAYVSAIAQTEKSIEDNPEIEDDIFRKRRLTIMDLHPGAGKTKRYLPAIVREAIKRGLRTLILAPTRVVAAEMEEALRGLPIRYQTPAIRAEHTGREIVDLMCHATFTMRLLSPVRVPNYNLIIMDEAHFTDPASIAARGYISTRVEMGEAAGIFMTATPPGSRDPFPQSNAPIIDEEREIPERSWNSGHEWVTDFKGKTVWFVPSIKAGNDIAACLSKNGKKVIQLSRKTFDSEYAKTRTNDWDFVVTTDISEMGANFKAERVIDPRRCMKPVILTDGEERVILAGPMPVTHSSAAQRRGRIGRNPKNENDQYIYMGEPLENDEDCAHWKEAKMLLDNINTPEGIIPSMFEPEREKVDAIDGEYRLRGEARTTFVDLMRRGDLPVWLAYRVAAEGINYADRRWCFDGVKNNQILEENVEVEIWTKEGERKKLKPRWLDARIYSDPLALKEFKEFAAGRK
Assay type: functional, Thailand/16681/1984
quantity: IC50

Cc1cc(N2CCC(NS(=O)(=O)c3ccc(Cl)cc3C(=O)O)CC2)nc(C)n1
> 99.5 µM
NCc1cccc(NC(=O)[C@H](NC(=O)OCc2ccccc2)c2ccc(OCc3ccccc3)c(Br)c2)c1
30.4 µM
O=C(O)c1cc(Cl)ccc1S(=O)(=O)Nc1nn(Cc2ccccc2)cc1Cl
> 99.5 µM
COC(=O)[C@@H](C)NC(=O)c1cc(Cl)ccc1NS(=O)(=O)c1ccc(Oc2ccccc2Cl)cc1
39 µM
NCc1cccc(NC(=O)C[C@@H]2[C@H]3CC[C@H](C3)N2C(=O)OCc2ccccc2)c1
> 99.5 µM

### Prompt IC50 for NCc1cccc(NC(=O)[C@H](NC(=O)OCc2ccccc2)c2ccc(Br)c(F)c2)c1 ?
### Response 88.2 µM

### Prompt What does the record list as IC50 for c1ccc2sc(C3CCN([C@H]4Cc5[nH]c6ccccc6c5C4)CC3)nc2c1 ?
### Response > 99.5 µM

### Prompt Return reported IC50; argument: O=C(Nc1ccc2c(c1)CNC2)c1cc(Br)cc2c1OCO2
### Response > 99.5 µM

### Prompt IC50 for NCc1cccc(N[C@H](C#CCO)c2cc(Cl)cc(NC(=O)OCc3ccccc3)c2)c1 ?
### Response 93.8 µM

### Prompt Entry NC[C@@H](NC(=O)c1cc(Cl)cc(NC(=O)OCc2ccccc2)c1)c1ccccc1 has what IC50?
### Response > 99.5 µM

====

Listed next: entries and their corresponding IC50.
Target: UniProt:P29990
Assay type: functional, Thailand/16681/1984

### Prompt State the recorded IC50 for this entry: NCc1cccc(NC(=O)[C@H](NC(=O)OCc2ccccc2)C2CCN(CCc3ccccc3)CC2)c1
### Response > 99.5 µM

### Prompt Fill in the blank: the reported IC50 of O=C(Nc1ccc2c(c1)CNC2)c1cc(Cl)ccc1-n1cncn1 is ____.
### Response > 99.5 µM

### Prompt What value of IC50 has been recorded for this entry: CCn1cc(-c2ccc(OC)c(C)c2)nc(N2CC[C@@H](CO)C2)c1=O
### Response > 99.5 µM

====

Molecular target: Genome polyprotein (dengue virus type 2)
Format: functional, Thailand/16681/1984
quantity: IC50

Worked set:
COc1ccc(S(=O)(=O)Nc2cc(F)c(Cl)cc2C(=O)O)cc1
> 99.5 µM
Cc1c(C(=O)Nc2cc(C(=O)N(C)[C@H]3C[C@H](O)C3)ccn2)cc(C2CC2)n1C
> 99.5 µM
O=C1OCc2ccc(NC(=O)c3cc(F)cc4[nH]ncc34)cc21
> 99.5 µM
c1cc(Cc2noc(CCc3cscn3)n2)no1
> 99.5 µM
CCn1c(=O)c(N2CC[C@H](CO)C2)nc2cc(C(N)=O)ccc21
> 99.5 µM

### Prompt I have this compound here, N#C[C@]1(Nc2cccc(-c3nn[nH]n3)c2)C(=O)Nc2ccc(Cl)cc21 , and I need its recorded IC50.
### Response > 99.5 µM

### Prompt For the compound shown here, O=C(Nc1ccc2c(c1)CNC2)c1cc(Cl)cc2nn(C3CCC3)cc12 , give the reported IC50.
### Response > 99.5 µM

### Prompt Query: IC50; subject: C[C@@H](O)c1cccc(N2CCC(c3nc(N)ncc3F)CC2)n1
### Response > 99.5 µM

### Prompt Tell me the measured IC50 of Cn1nc([C@@H]2CCCN2)nc1NC(=O)c1cc(Cl)cc(NC(=O)OCc2ccccc2)c1 , please.
### Response > 99.5 µM

### Prompt Please give the measured IC50 for this compound: NCc1cccc(NC(=O)Cc2cc(Cl)cc(NC(=O)OCc3ccccc3)c2)c1
### Response 85.8 µM

====

Target: Genome polyprotein (dengue virus type 2)
Type: functional, Thailand/16681/1984
quantity: IC50

CCc1cc(C(=O)Nc2cccc(-c3nnn[nH]3)c2)sc1C
> 99.5 µM
CN(C)c1ccc(/C=C/C(=O)C(=O)N2CCOCC2)cc1
88.8 µM
c1ccc2[nH]c(CC3CCN(Cc4nccs4)CC3)nc2c1
> 99.5 µM

### Prompt // returns reported IC50 for input CC(C)c1noc2nc(C3CC3)cc(C(=O)Nc3cccc(CN)c3)c12
### Response > 99.5 µM

====

// reported IC50 per item
Target: Genome polyprotein (dengue virus type 2, UniProt P29990)
Format: functional, Thailand/16681/1984

Record excerpt, results attached:
O=C(O)c1cccc(CCc2cc(Cl)cc3[nH]ncc23)c1
> 100 µM
Clc1ccc2c(CN3CCC(c4c[nH]c5ncccc45)CC3)c[nH]c2c1
> 100 µM
NCCc1cccc(NC(=O)[C@H]2[C@H]3CCCCC[C@H]3[C@H]2NC(=O)OCc2ccccc2)c1
12.1 µM
O=C(Nc1ccc2c(c1)CNC2)c1cc(Cl)nc2[nH]ccc12
> 100 µM

Let us examine a further case.
### Prompt Suppose we examine the molecule CNC(=O)[C@H](Nc1ccc2c(c1)CNC2)c1cc(Cl)cc2[nH]ncc12 ; what IC50 value has been reported?
### Response > 100 µM

====

Quick reference for pIC50 among some compounds
Biological target: Genome polyprotein (dengue virus type 2, UniProt P29990)
Type: functional, Thailand/16681/1984
pIC50: −log10 of the molar value.

O=C(Nc1ccc2c(c1)CNC2)c1cc(Cl)cc2nn(-c3ccccc3)nc12
4.89

### Prompt Consider the compound Fc1cc(CNc2ccc3c(c2)CNC3)c2cn[nH]c2c1 and give its measured pIC50.
### Response < 4.00

### Prompt I would be grateful if you could share the reported pIC50 for CS(=O)(=O)N1CCC([C@@H](NC(=O)OCc2ccccc2)C(=O)Nc2cccc(CN)c2)CC1 .
### Response < 4.00

### Prompt // pIC50 lookup, key: CO[C@H]1C[C@H](n2ncc3c(C(=O)Nc4ccc5c(c4)CNC5)cc(Cl)cc32)C1
### Response < 4.00

### Prompt Given the compound CC[C@H]1CN(C(=O)Nc2ccc3c(c2)CNC3)C[C@@H]1c1ccc(OC)cc1 , what is its reported pIC50?
### Response < 4.00

### Prompt Field request: pIC50 | item: Cc1ccc(C)n1-c1ccc(Cl)cc1C(=O)Nc1ccc2c(c1)CNC2
### Response < 4.00

### Prompt Consider the compound COCCCN1Cc2ccc(NC(=O)c3cc(Cl)cc4[nH]ncc34)cc2C1 and give its measured pIC50.
### Response < 4.00

### Prompt Which pIC50 value belongs to NCCc1ccc(NC(=O)c2cc(Cl)cc(CN)c2)cc1 ?
### Response < 4.00

### Prompt Would you mind telling me what pIC50 value was observed for NC1CCN(c2ccc(NC(=O)c3cc(Cl)cc(NC(=O)OCc4ccccc4)c3)cc2)CC1 ?
### Response < 4.00

### Prompt What pIC50 value was documented for this compound, O=C(Nc1ccc2c(c1)CNC2)c1cc(Cl)cc2[nH]c(-c3ccnn3C3CC3)nc12 ?
### Response < 4.00

### Prompt Please give the measured pIC50 for this compound: Cc1nnc(SC[C@H]2CCCN2C(=O)Nc2ccc3c(c2)CNC3)s1
### Response < 4.00

### Prompt Could you share which pIC50 value was measured for COc1ccccc1Cn1cnc2cc(C(=O)Nc3ccc4c(c3)CNC4)ccc21 ?
### Response < 4.00

### Prompt Using the record for Cc1c(C(=O)Nc2cc(C#N)c3ccccc3n2)cc(C2CC2)n1C , report its pIC50.
### Response < 4.00

### Prompt Data request, read-out pIC50, for O=C1Cc2cc(NC(=O)c3cc(Cl)cc4[nH]ncc34)ccc2N1
### Response < 4.00

### Prompt Could you share which pIC50 value was measured for CCc1[nH]c(-c2ccccc2)cc1C(=O)Nc1cccc(-c2nnn[nH]2)c1 ?
### Response 4.48

### Prompt Value lookup for pIC50; key = O=C(Nc1ccc2c(c1)CN[C@H]2CO)c1cc(F)cc2[nH]ncc12
### Response < 4.00

### Prompt Can you share its pIC50? I mean this compound: NCc1cccc(NC(=O)c2cc(Cl)cc(F)c2F)c1
### Response < 4.00
